Assay: Binding affinity towards Protease using PNA assay in rats
readout.label: Ki (nM)
Report the figure in nM without appending any unit label.

In the examples that follow, each entry is paired with its recorded Ki.
Sample CCCC(NC(=O)[C@@H]1[C@H]2CC=C[C@H]2CN1C(=O)[C@@H](NC(=O)[C@@H](NC(=O)c1cnccn1)C(C)C)C(C)C)C(=O)C(=O)N[C@@H](C)c1ccccc1 (stereo partly drawn) — what was its Ki?
880

Param item: CCCC(NC(=O)[C@@H]1[C@H]2CCC(F)(F)[C@H]2CN1C(=O)[C@@H](NC(=O)[C@@H](NC(=O)c1cnccn1)C(C)C)C(C)C)C(=O)C(=O)NC1CC1 (stereo partly drawn)
370

Now take the following compound into account.
Sample CCCC(NC(=O)[C@@H]1[C@H]2CC[C@@H](OCOC)C2CN1C(=O)[C@@H](NC(=O)[C@@H](NC(=O)c1cnccn1)C(C)C)C(C)C)C(=O)C(=O)N[C@@H](C)c1ccccc1 (stereo partly drawn) — what was its Ki?
332

* * *

Listed molecules paired with reported IC50
Test: Cytotoxic activity against Protease in […] Huh-7 cells

Sample CCCC(NC(=O)[C@@H]1[C@H]2CCC(F)(F)[C@H]2CN1C(=O)[C@@H](NC(=O)[C@@H](NC(=O)c1cnccn1)C(C)C)C(C)C)C(=O)C(=O)N[C@@H](Cc1ccccc1)C(=O)O (some centres not stated) — what was its IC50?
> 100 µM

Now take the following molecule into account.
Sample CCCC(NC(=O)[C@@H]1[C@H]2CC[C@H](F)[C@H]2CN1C(=O)[C@@H](NC(=O)[C@@H](NC(=O)c1cnccn1)C(C)C)C(C)C)C(=O)C(=O)N[C@@H](Cc1ccccc1)C(=O)O (some centres not stated) — what was its IC50?
> 100 µM

* * *

Assay: Cytotoxic activity against Protease in […] Huh-7 cells at 100 uM concentration
readout.label: IC50 (µM)
Report the figure in µM without appending any unit label.

Sample CCCC(NC(=O)[C@@H]1[C@H]2CC[C@@H](OCOC)C2CN1C(=O)[C@@H](NC(=O)[C@@H](NC(=O)c1cnccn1)C(C)C)C(C)C)C(=O)C(=O)N[C@@H](C)c1ccccc1 (stereo partly specified) — what was its IC50?
33

* * *

Listed compounds paired with reported pKi
Assay: Binding affinity towards Protease using PNA assay in rats
*1 amine or outer side, *2 acyl side, *3 side chain or, on linkers, in order; H or OH if unused. Where a SMILES comes first, the peptide text is derived from it. [ ]: non-standard residue; d: D form. The star is where a group is joined. Pro(3S,4R-(CH2)3) = O=C(O)[C@H]1NC[C@@H]2CCC[C@@H]21; Pyrazinecarbonyl = O=C(c1cnccn1)*; X1 = CCCC(N[*:1])C(=O)C(=O)[*:2]
Note on pKi: it is the negative log10 of concentration, concentration in mol/L.

In the examples that follow, each entry is paired with its recorded pKi.
Sample CCCC(NC(=O)[C@@H]1[C@H]2CC=C[C@H]2CN1C(=O)[C@@H](NC(=O)[C@@H](NC(=O)c1cnccn1)C(C)C)C(C)C)C(=O)C(=O)NC1CC1 (stereo not given in full) — what was its pKi?
7.05

Param item: CCCC(NC(=O)[C@@H]1[C@H]2CC[C@@H](OCOC)C2CN1C(=O)[C@@H](NC(=O)[C@@H](NC(=O)c1cnccn1)C(C)C)C(C)C)C(=O)C(=O)NC1CC1 (stereo not given in full)
6.38

Param item: CCCC(NC(=O)[C@@H]1[C@H]2CC[C@H](F)[C@H]2CN1C(=O)[C@@H](NC(=O)[C@@H](NC(=O)c1cnccn1)C(C)C)C(C)C)C(=O)C(=O)N[C@@H](C)c1ccccc1 (stereo not given in full)
6.50

Param item: CCCC(NC(=O)[C@@H]1[C@H]2CCC[C@H]2CN1C(=O)[C@@H](NC(=O)[C@@H](NC(=O)c1cnccn1)C(C)C)C(C)C)C(=O)C(=O)N[C@@H](Cc1ccccc1)C(=O)O (stereo partly drawn) (Pyrazinecarbonyl-VV[Pro(3S,4R-(CH2)3)][X1]F-OH)
7.17

Now take the following compound into account.
Sample CCCC(NC(=O)[C@@H]1[C@H]2CC[C@H](F)[C@H]2CN1C(=O)[C@@H](NC(=O)[C@@H](NC(=O)c1cnccn1)C(C)C)C(C)C)C(=O)C(=O)NC1CC1 (stereo not given in full) — what was its pKi?
6.52

* * *

Listed molecules paired with reported log10(Ki)
Assay: Binding affinity towards Protease using PNA assay in rats
A value of 2 here means Ki of 100 in nM, since values are log10.

In the examples that follow, each entry is paired with its recorded log10(Ki).
Sample CCCC(NC(=O)C1[C@H]2CCC(=O)[C@H]2CN1C(=O)[C@@H](NC(=O)[C@@H](NC(=O)c1cnccn1)C(C)C)C(C)C)C(=O)C(=O)NC1CC1 (stereo not given in full) — what was its log10(Ki)?
2.71

Param item: CCCC(NC(=O)C1[C@H]2CCC(=O)[C@H]2CN1C(=O)[C@@H](NC(=O)[C@@H](NC(=O)c1cnccn1)C(C)C)C(C)C)C(=O)C(=O)Nc1ccccc1 (stereo not given in full)
1.23

Param item: CCCC(NC(=O)[C@@H]1[C@H]2CC=C[C@H]2CN1C(=O)[C@@H](NC(=O)[C@@H](NC(=O)c1cnccn1)C(C)C)C(C)C)C(=O)C(=O)N[C@@H](C)CC (stereo not given in full)
2.80

Param item: CCCC(NC(=O)[C@@H]1[C@H]2CC[C@H](F)[C@H]2CN1C(=O)[C@@H](NC(=O)[C@@H](NC(=O)c1cnccn1)C(C)C)C(C)C)C(=O)C(=O)N[C@@H](Cc1ccccc1)C(=O)O (stereo not given in full)
1.91

Now take the following molecule into account.
Sample CCCC(NC(=O)[C@@H]1[C@H]2CCC(F)(F)[C@H]2CN1C(=O)[C@@H](NC(=O)[C@@H](NC(=O)c1cnccn1)C(C)C)C(C)C)C(=O)C(=O)N[C@@H](Cc1ccccc1)C(=O)O (stereo not given in full) — what was its log10(Ki)?
2.25

Source listed as BindingDB's records for doi:10.1016/j.bmcl.2003.09.074.
